Test system: BDF1 mice, B16 melanoma ip, median survival T/C
Assay: NCI In Vivo Anticancer Drug Screen. Data for tumor model B16 Melanoma (intraperitoneal) in B6D2F1 (BDF1) mice
Details: endpoint: median survival time; dose: 5.0 mg/kg/injection; schedule: Q01DX009 (ip); vehicle: saline; higher = longer survival
Procedure: The antitumor activity of compounds was measured in mice bearing transplantable tumors. Survival or tumor size were measured and the results are expressed as the measurement made in the treated group (T) divided by the measurement made in the vehicle treated control group (C). The tumor model used in this assay is B16 Melanoma (intraperitoneal) in B6D2F1 (BDF1) mice
Toxic doses and inconclusive results are not listed.
Answer each item with its documented T/C.

*Q* For the compound shown here, O=c1[nH]c(=O)n(C2CC(O)C(CO)O2)cc1F (configuration not stated) , give the reported T/C.
*A* 92 % of control

*Q* For the compound shown here, O=CN(O)CC(=O)O.[Zn] , give the reported T/C.
*A* 99 % of control

*Q* For the compound shown here, CCC(C)C#N (configuration not stated) , give the reported T/C.
*A* 97 % of control

*Q* For the compound shown here, CN1CCN=C1c1ccc(NC(=O)c2ccc(C(=O)Nc3ccc(C4=NCCN4C)cc3)c(N)c2)cc1 , give the reported T/C.
*A* 115 % of control

*Q* For the compound shown here, C[C@]12CC[C@H]3[C@@H](CCC4=C[C@@H](OC5OCC(OC6OC(CO)C(O)C(O)C6O)C(O)C5O)CC[C@@]43C=O)[C@@]1(O)CCC2C1=CC(=O)OC1 (some centres not stated) , give the reported T/C.
*A* 89 % of control

*Q* For the compound shown here, COc1cc2c[n+](C)c3c4cc5c(cc4ccc3c2cc1OC)OCO5 (tested in a mixture with another compound) , give the reported T/C.
*A* 116 % of control

*Q* For the compound shown here, CS(=O)(=O)OCCCNCCCOS(C)(=O)=O , give the reported T/C.
*A* 123 % of control

###

Answer each item with its documented T/C.
Tested on: BDF1 mice, B16 melanoma ip, median survival T/C
Test: NCI In Vivo Anticancer Drug Screen. Data for tumor model B16 Melanoma (intraperitoneal) in B6D2F1 (BDF1) mice
Details: endpoint: median survival time; dose: 10.0 mg/kg/injection; schedule: Q01DX009 (ip); vehicle: Klucel (hydroxypropylcellulose) (HPC); higher = longer survival
Inconclusive results and toxic doses are left out.

*Q* For the molecule shown here, COc1cc2ccc3c4cc5c(cc4c[n+](C)c3c2cc1OC)OCO5 , give the reported T/C.
*A* 104 % of control

*Q* For the molecule shown here, NC(=O)c1nn(C2OC(CO)C(O)C2O)c2ncnc(N)c12 (stereo not drawn) , give the reported T/C.
*A* 118 % of control

*Q* For the molecule shown here, ClCC[N-]CC[N-]CCCl.ClCC[N-]CC[N-]CCCl.[O-][Cl+3]([O-])([O-])O.[Zn+2] , give the reported T/C.
*A* 101 % of control

###

Tested on: BDF1 mice, B16 melanoma ip, median survival T/C
Test: NCI In Vivo Anticancer Drug Screen. Data for tumor model B16 Melanoma (intraperitoneal) in B6D2F1 (BDF1) mice
Conditions: endpoint: median survival time; dose: 50.0 mg/kg/injection; schedule: Q01DX009 (ip); vehicle: saline with Tween-80
Inconclusive results and toxic doses are left out. The calls were made as follows: active = survival T/C of 150% or more; inactive = T/C below 125% in these data.
Bench note: report the call from active, inactive

*Q* Each molecule tested received a call. Report the one for COC(CCCl)c1ccc(Cl)cc1 (centres undefined) .
*A* inactive

*Q* Each molecule tested received a call. Report the one for O=C(O)c1cccc(S(=O)(=O)N(CCO)CCO)c1 .
*A* inactive

*Q* Each molecule tested received a call. Report the one for CC(NC(=O)OC(C)(C)C)C(=O)ON1C(=O)CCC1=O (centres undefined) .
*A* inactive

*Q* Each molecule tested received a call. Report the one for CCCCC(SC(CC)(C(N)=O)c1ccccc1)C(=O)O (centres undefined) .
*A* inactive

*Q* Each molecule tested received a call. Report the one for Nc1ncnc2c1c(C(=O)O)cn2C1OC(CO)C(O)C1O (centres undefined) .
*A* inactive

*Q* Each molecule tested received a call. Report the one for Cc1cc(C)nc(NC(N)=NCCc2ccccc2)n1 .
*A* inactive

*Q* Each molecule tested received a call. Report the one for CC(=O)Nc1cc2c(cc1Br)-c1ccccc1C2O (centres undefined) .
*A* inactive

*Q* Each molecule tested received a call. Report the one for CCCCN(C)/N=N/c1nc[nH]c1C(N)=O .
*A* inactive

*Q* Each molecule tested received a call. Report the one for N#CCCN(CCC#N)/N=N\c1nc[nH]c1C(N)=O .
*A* inactive

*Q* Each molecule tested received a call. Report the one for Cc1ccccc1N(CC1CO1)CC1CO1 (centres undefined) .
*A* active

*Q* Each molecule tested received a call. Report the one for Cc1cc2oc(C)[n+](Cc3ccccc3)c2cc1C .
*A* inactive

*Q* Each molecule tested received a call. Report the one for CC(C)N(CCCO)C(C)C .
*A* inactive

*Q* Each molecule tested received a call. Report the one for Cc1c2cc(Cl)c3ccccc3c2c[n+]2ccccc12 .
*A* inactive

*Q* Each molecule tested received a call. Report the one for CC(=O)Nc1cccc([N+](=O)[O-])c1 .
*A* inactive

*Q* Each molecule tested received a call. Report the one for CCOC(=O)N1CCN(CCCCCOc2ccccc2C2CCCCC2)CC1 .
*A* inactive

*Q* Each molecule tested received a call. Report the one for ClC1CCC[N-]C1.ClC1CCC[N-]C1.O=C(O)CC(=O)O.[Pt+2] (centres undefined) .
*A* inactive

*Q* Each molecule tested received a call. Report the one for CCN1CSC(=S)N(CC)C1 .
*A* inactive

*Q* Each molecule tested received a call. Report the one for O=C(COc1ccc(Cl)cc1)Nc1ccc(Cl)cc1 .
*A* inactive

*Q* Each molecule tested received a call. Report the one for CCCCOC(=O)c1ccc(NC(=O)Nc2ccccc2OC)cc1 .
*A* inactive
